biological target: T1, TBD-22 (HC D109A); test: competition ELISA, Fab on captured TROP2
T1 construct: anti-TROP2 Fab, CDR3 HC alanine mutant
T1 sequence (VH, as listed by the source, chain 1 of 2): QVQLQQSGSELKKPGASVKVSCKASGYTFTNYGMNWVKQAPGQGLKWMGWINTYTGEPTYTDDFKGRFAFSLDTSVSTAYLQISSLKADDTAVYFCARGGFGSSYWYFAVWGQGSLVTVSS
T1 sequence (VL, as listed by the source, chain 2 of 2): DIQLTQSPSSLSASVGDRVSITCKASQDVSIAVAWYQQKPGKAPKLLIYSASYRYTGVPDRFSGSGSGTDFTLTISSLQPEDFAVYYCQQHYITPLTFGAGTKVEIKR
pIC50: −log10 of the molar value.
Outcome label depends on pIC50 relative to 6: at/above gives Met, below gives Not met.

# binder, assigned class
rows = [
    ("VDFCNLYHWPICAI (mask peptide for the TROP2 Fab) [Peptide-60]", "Met"),
    ("VDFCYQYGWPICSRLY (mask peptide for the TROP2 Fab) [Peptide-47]", "Not met"),
    ("VDFCYQYGWPICSRV (mask peptide for the TROP2 Fab) [Peptide-56]", "Not met"),
    ("VDFCYKYNWPICSR (mask peptide for the TROP2 Fab) [Peptide-55]", "Met"),
    ("VDFCALYHWPVCGL (mask peptide for the TROP2 Fab) [Peptide-61]", "Met"),
    ("IDFCLLYKWPVCEL (mask peptide for the TROP2 Fab) [Peptide-49]", "Met"),
    ("VDFCALYHWPICYQ (mask peptide for the TROP2 Fab) [Peptide-43]", "Met"),
    ("IDFCRVYDWPVCSL (mask peptide for the TROP2 Fab) [Peptide-53]", "Met"),
    ("VDFCALYNWPVCAI (mask peptide for the TROP2 Fab) [Peptide-59]", "Met"),
    ("IDFCYRYGWPVCQT (mask peptide for the TROP2 Fab) [Peptide-57]", "Not met"),
]
